readoutLabel: logP

Below are worked cases with known answers.
| querySmiles | reported |
| --- | --- |
| O=C1COCC(=O)N(Cc2ccccc2)CCN(c2ccccc2)CCN(Cc2ccccc2)C(=O)COCC(=O)NCCN1 | 2.2 |
| CCN(Cc1ccccc1)C(=O)COCC(=O)N(CC)Cc1ccccc1 | 2.5 |
| O=C1COCC(=O)N(Cc2ccccc2)CCN(c2ccc(F)cc2)CCN(Cc2ccccc2)C(=O)COCC(=O)N(Cc2ccccc2)CCN1Cc1ccccc1 | 5.2 |

(a) O=C1COCC(=O)N(Cc2ccccc2)CCN(Cc2ccccc2)C(=O)COCC(=O)NCCN1
(b) O=C1COCCOCC(=O)N(Cc2ccccc2)CCN(Cc2ccccc2)C(=O)COCCOCC(=O)N(Cc2ccccc2)CCN1Cc1ccccc1
Q: Higher logP: a or b ? State the label of the item chosen.
A: b
